meta.source: ChEMBL document CHEMBL4373711

- System: Mycobacterium kansasii
- METHOD_NOTES: Antimycobacterial activity against Mycobacterium kansasii 6509/96 after 21 days
- Type: functional
- CONDITION_CONTEXT: 6509/96, 504 h
MEASURED_PROPERTY: MIC99

For orientation, consider the following solved cases.
O=[N+]([O-])c1cc(CSc2nnc(-c3ccccc3)n2Cc2ccc(Cl)cc2Cl)cc([N+](=O)[O-])c1 ... > 32 µM
COc1ccc(-c2nnc(SCc3cc([N+](=O)[O-])cc(C(F)(F)F)c3)n2Cc2ccccc2)cc1 ... > 32 µM
CCNC(=S)NNC(=O)c1cc([N+](=O)[O-])cc([N+](=O)[O-])c1 ... > 32 µM
O=[N+]([O-])c1cc(CSc2nnc(-c3ccc(Cl)cc3)n2Cc2ccccc2)cc(C(F)(F)F)c1 ... > 32 µM
O=[N+]([O-])c1cc(CSc2nnc(-c3ccccc3)n2Cc2ccccc2)cc(C(F)(F)F)c1 ... > 32 µM
Cc1ccc(-c2nnc(SCc3cc([N+](=O)[O-])cc(C(F)(F)F)c3)n2Cc2ccccc2)cc1 ... > 32 µM

Batch request: MIC99 for each of the following molecules.
1. O=[N+]([O-])c1cc(-c2nnc(SCc3ccc(Cl)cc3)n2Cc2ccccc2)cc(C(F)(F)F)c1
2. O=[N+]([O-])c1cc(-c2nnc(SCc3ccccc3)n2Cc2ccccc2)cc(C(F)(F)F)c1

1. 0.5 µM
2. 0.03 µM

Batch request: MIC99 for each of the following molecules.
1. O=[N+]([O-])c1ccc(-c2nnc(SCc3cc([N+](=O)[O-])cc([N+](=O)[O-])c3)n2Cc2ccccc2)cc1
2. O=[N+]([O-])c1cc(CSc2nnc(-c3ccc(Cl)cc3)n2Cc2ccccc2)cc([N+](=O)[O-])c1

["8 µM", "8 µM"]
